Target: T1, human CD228 (R&D Systems Custom02; Lot DCWR021505A) (human, UniProt P08582 20-709, limits assumed)
T1 construct: Bought custom protein coated on ELISA plates; also called CD228 protein; melanotransferrin
T1 sequence (looked up): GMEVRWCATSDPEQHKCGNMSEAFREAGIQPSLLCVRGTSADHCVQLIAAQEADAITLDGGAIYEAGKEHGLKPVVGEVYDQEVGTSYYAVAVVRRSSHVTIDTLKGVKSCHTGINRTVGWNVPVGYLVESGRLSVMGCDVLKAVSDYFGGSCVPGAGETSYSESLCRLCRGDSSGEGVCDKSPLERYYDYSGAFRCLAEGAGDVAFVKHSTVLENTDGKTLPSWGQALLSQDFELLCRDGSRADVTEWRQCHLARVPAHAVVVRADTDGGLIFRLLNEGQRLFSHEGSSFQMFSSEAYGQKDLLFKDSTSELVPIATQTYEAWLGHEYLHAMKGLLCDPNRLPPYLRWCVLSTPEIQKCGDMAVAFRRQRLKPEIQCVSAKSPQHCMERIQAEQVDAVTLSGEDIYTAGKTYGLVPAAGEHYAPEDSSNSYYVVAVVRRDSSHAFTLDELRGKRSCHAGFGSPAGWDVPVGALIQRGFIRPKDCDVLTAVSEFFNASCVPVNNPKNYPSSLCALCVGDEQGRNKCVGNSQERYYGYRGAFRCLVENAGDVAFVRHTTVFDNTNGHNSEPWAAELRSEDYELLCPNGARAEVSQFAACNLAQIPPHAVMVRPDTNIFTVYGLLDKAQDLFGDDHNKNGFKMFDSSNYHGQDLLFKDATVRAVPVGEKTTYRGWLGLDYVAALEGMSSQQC
Experiment: ELISA, coated human CD228, pH 5.60
measuredProperty: EC50 (nM)
API: value field is a number in nM; no unit string.

Consider the following illustrative entries.
hL49_27D_Tyr (antibody, V domains shown, hL49 variant with the light chain CDR-L1 histidine 27D changed to tyrosine) VH: QVQLQESGPGLVKPSETLSLTCTVSGDSITSGYWNWIRQPPGKGLEYIGYISDSGITYYNPSLKSRVTISRDTSKNQYSLKLSSVTAADTAVYYCARRTLATYYAMDYWGQGTLVTVSS VL: DFVMTQSPLSLPVTLGQPASISCRASQSLVYSDGNTYLHWYQQRPGQSPRLLIYRVSNRFSGVPDRFSGSGSGTDFTLKISRVEAEDVGVYYCSQSTHVPPTFGQGTKLEIK	5.16
hL49_34_Gln (antibody, V domains shown, hL49 variant with the light chain CDR-L1 histidine 34 changed to glutamine) VH: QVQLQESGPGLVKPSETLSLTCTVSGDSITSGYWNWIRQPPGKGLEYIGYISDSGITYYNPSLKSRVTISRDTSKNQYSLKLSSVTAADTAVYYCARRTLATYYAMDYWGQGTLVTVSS VL: DFVMTQSPLSLPVTLGQPASISCRASQSLVHSDGNTYLQWYQQRPGQSPRLLIYRVSNRFSGVPDRFSGSGSGTDFTLKISRVEAEDVGVYYCSQSTHVPPTFGQGTKLEIK	169

# ---- query binder ----
I'd like to know its EC50. The binder in question is hL49_34_Ala (antibody, V domains shown, hL49 variant with the light chain CDR-L1 histidine 34 changed to alanine; also called hL49_H34A) VH: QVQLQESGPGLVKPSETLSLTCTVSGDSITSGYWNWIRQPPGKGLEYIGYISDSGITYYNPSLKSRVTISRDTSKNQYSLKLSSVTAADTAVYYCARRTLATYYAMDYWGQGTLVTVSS VL: DFVMTQSPLSLPVTLGQPASISCRASQSLVHSDGNTYLAWYQQRPGQSPRLLIYRVSNRFSGVPDRFSGSGSGTDFTLKISRVEAEDVGVYYCSQSTHVPPTFGQGTKLEIK
271
